- TARGET OR SYSTEM: NAD-dependent protein deacetylase sirtuin-2 (Homo sapiens)
- Sequence (Q8IXJ6 whole entry): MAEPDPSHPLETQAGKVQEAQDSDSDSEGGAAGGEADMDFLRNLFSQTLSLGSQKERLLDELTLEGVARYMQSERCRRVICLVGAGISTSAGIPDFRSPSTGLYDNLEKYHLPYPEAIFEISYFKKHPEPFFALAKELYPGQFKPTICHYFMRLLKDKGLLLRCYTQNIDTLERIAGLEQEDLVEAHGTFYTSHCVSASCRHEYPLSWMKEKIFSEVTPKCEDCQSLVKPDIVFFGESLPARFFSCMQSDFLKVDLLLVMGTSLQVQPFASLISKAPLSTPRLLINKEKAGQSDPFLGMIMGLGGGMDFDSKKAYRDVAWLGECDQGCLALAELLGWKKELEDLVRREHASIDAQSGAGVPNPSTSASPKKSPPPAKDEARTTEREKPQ
pIC50: −log10 of the molar value.

>  <CHEM SMILES>
N#Cc1ccc(Cn2c3ccc(Cl)cc3c3cc(C(=O)NCc4ccccn4)ncc32)cc1

>  <pIC50>
3.80

$$$$

----------
- TARGET OR SYSTEM: NAD-dependent protein deacetylase sirtuin-7 (Homo sapiens)
- Sequence (Q9NRC8 whole entry): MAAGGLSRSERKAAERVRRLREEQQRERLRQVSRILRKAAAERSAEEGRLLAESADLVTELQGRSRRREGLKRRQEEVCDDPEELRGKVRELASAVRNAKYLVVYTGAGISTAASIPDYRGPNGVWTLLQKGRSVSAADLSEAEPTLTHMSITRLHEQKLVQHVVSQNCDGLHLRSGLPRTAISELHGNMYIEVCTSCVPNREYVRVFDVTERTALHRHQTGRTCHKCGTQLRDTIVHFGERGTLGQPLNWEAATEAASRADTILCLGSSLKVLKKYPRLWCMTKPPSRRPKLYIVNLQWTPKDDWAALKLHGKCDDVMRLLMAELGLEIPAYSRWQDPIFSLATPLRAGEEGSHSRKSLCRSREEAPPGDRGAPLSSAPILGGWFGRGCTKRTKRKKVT
pIC50: −log10 of the molar value.
EXPERIMENTAL ENDPOINT: pIC50

>  <CHEM SMILES>
N#Cc1ccc(Cn2c3ccc(Cl)cc3c3cc(C(=O)NCc4ccccn4)ncc32)cc1

>  <OBSERVED MEASUREMENT>
< 3.30

$$$$
